Biological target: human 5-HT5A receptor (Homo sapiens (Human))
Sequence (P47898 whole entry): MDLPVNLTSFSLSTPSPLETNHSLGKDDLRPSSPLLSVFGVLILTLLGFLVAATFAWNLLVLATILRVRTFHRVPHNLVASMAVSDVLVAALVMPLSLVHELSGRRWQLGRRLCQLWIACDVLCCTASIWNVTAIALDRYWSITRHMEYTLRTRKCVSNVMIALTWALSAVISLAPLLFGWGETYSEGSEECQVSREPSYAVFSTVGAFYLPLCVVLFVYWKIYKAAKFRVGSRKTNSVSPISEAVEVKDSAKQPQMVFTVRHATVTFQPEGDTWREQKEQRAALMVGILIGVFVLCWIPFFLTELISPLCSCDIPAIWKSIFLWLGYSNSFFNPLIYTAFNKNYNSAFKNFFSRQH
Experiment: Test on a human 5-HT5A receptor binding inhibition ([3H]5-CT)
Conditions: [3H]5-CT binding, membrane from HEK293 cells expressing human 5-HT5A receptor; Ki calculated from IC50
Where a name gives a salt, the structure may show the parent alone.
measuredQuantity: Ki

Consider the worked cases shown below.
>>> recordedvalue("Cc1cc(C(=O)N=C(N)N)cc2c(-c3c(F)cc(F)cc3Cl)ccnc12 [Example 65]")
"1 to 10 nM"
>>> recordedvalue("NC(N)=NC(=O)c1ccc2nccc(-c3c(F)cc(F)cc3F)c2c1 [Example 5]")
"1 to 10 nM"
>>> recordedvalue("N#Cc1cnc(-c2c(F)cc(F)cc2F)c2cc(C(=O)N=C(N)N)ccc12 [Example 143]")
"10 to 100 nM"

Go through the items and report each one's Ki.
1. NC(N)=NC(=O)c1ccc2nccc(-c3cc(C(F)(F)F)ccc3F)c2c1 [Example 25]
2. Cc1cc(-c2c(F)cc(F)cc2Cl)c2cc(C(=O)N=C(N)N)ccc2n1 [Example 124]
3. CN/C(N)=N/C(=O)c1ccc2nccc(-c3c(F)cc(F)cc3F)c2c1 [Example 3, dihydrochloride]
4. NC(N)=NC(=O)c1ccc2nccc(C3=CCCCC3)c2c1 [Example 62]

1: 10 to 100 nM; 2: 10 to 100 nM; 3: 1 to 10 nM; 4: 1 to 10 nM
